Provide the reported pIC50 of each item.
# system name: Sodium/potassium-transporting ATPase subunit alpha-1 (Sus scrofa)
# method: In vitro inhibitory activity against porcine Na+/K+-ATPase
Numbers only, as −log10 of the molar value.

[[record]]
molecule = "CC(=O)OC[C@]12C[C@H]3OC4(O)[C@@H](O[C@H](C)C[C@@]45N=C(N)CS5)O[C@@H]3C[C@@H]1CC[C@@H]1[C@@H]2CC[C@]2(C)[C@@H](C3=CC(=O)OC3)CC[C@]12CO (stereo not given in full)"
number = 4.92

[[record]]
molecule = "C[C@@H]1C[C@@]2(N=C(N)CS2)[C@]2(O)O[C@@H]3C[C@@]4(C=O)[C@@H](CC[C@@H]5[C@@H]4CC[C@]4(C)[C@@H](C6=CC(=O)OC6)CC[C@]54O)C[C@H]3O[C@@H]2O1"
number = 7.17


// for each molecule in input: emit pIC50
1. C[C@@H]1C[C@@]2(N=C(N)CS2)C2(O[Si](C)(C)C)O[C@@H]3C[C@@]4(C=O)[C@@H](CC[C@@H]5[C@@H]4CC[C@]4(C)[C@@H](C6=CC(=O)OC6)CC[C@]54CO[Si](C)(C)C)C[C@H]3O[C@@H]2O1 (stereo not given in full)
2. C[C@@H]1C[C@@]2(NC(=O)CS2)C2(O)O[C@@H]3C[C@@]4(CO)[C@@H](CC[C@@H]5[C@@H]4CC[C@]4(C)[C@@H](C6=CC(=O)OC6)CC[C@]54CO)C[C@H]3O[C@@H]2O1 (stereo not given in full)

1. 4.30
2. 7.12

---

# Test system: Mus musculus
# method: Maximum tolerated dose after intraperitoneal administration in mouse (period of 28 days)
# Format: functional
result type: MTD

Known results for molecules:
[[record]]
molecule = "C[C@@H]1C[C@@]2(NC(=O)CS2)C2(O)O[C@@H]3C[C@@]4(COC(=O)CCc5ccccc5)[C@@H](CC[C@@H]5[C@@H]4CC[C@]4(C)[C@@H](C6=CC(=O)OC6)CC[C@]54CO)C[C@H]3O[C@@H]2O1 (some centres undefined)"
result_type = "MTD"
result = ">40 mg/kg"

[[record]]
molecule = "COC(=O)OC[C@]12C[C@H]3OC4(O)[C@@H](O[C@H](C)C[C@@]45N=C(N)CS5)O[C@@H]3C[C@@H]1CC[C@@H]1[C@@H]2CC[C@]2(C)[C@@H](C3=CC(=O)OC3)CC[C@]12CO (some centres undefined)"
result_type = "MTD"
result = ">40 mg/kg"

[[record]]
molecule = "C[C@@H]1C[C@@]2(N=C(N)CS2)C2(O[Si](C)(C)C)O[C@@H]3C[C@@]4(CO[Si](C)(C)C)[C@@H](CC[C@@H]5[C@@H]4CC[C@]4(C)[C@@H](C6=CC(=O)OC6)CC[C@]54CO)C[C@H]3O[C@@H]2O1 (some centres undefined)"
result_type = "MTD"
result = ">160 mg/kg"


Read the next record carefully.
Using Mus musculus as the test system, report measured MTD of C[C@@H]1C[C@@]2(N[C@H](CC(=O)c3ccccc3)CS2)C2(O)O[C@@H]3C[C@@]4(CO)[C@@H](CC[C@@H]5[C@@H]4CC[C@]4(C)[C@@H](C6=CC(=O)OC6)CC[C@]54CO)C[C@H]3O[C@@H]2O1 (some centres undefined) .
80 mg/kg
